- Test system: lipid peroxidation activity of each tissue homogenate (brain, heart and kidney)
- Experimental Protocol: Tissue migration properties: ex vivo lipid peroxidation inhibition in brain, heart and kidney homogenates
- Condition Details: heart homogenate; SD male rats; 100 mg/kg intraperitoneally; 30 minutes after administration
Measurement Name: Ex vivo lipid peroxidation inhibition inhibition ratio (%) Heart

Solved entries:
Challenge: Quick check: Ex vivo lipid peroxidation inhibition inhibition ratio (%) Heart of Cc1c(C)c2c(c(C)c1N)CC(C)(CN1CCN(c3cccc(-n4ccnc4)c3)CC1)O2 (stereo not drawn) [Compound B-1-18] ?
Response given: 88%

Challenge: Quick check: Ex vivo lipid peroxidation inhibition inhibition ratio (%) Heart of Cc1c(C)c2c(c(C)c1N)CC(C)(C(=O)N1CCN(c3ccc(-n4ccnc4)cc3)CC1)O2 (racemic) [Compound B-1-1] ?
Response given: 88%

Challenge: Quick check: Ex vivo lipid peroxidation inhibition inhibition ratio (%) Heart of Cc1c(C)c2c(c(C)c1O)CC(C)(C(=O)Nc1ccc(-n3ccnc3)cc1)O2 (stereo not drawn) [Compound R-1, reference compound] ?
Response given: 59%

Others:
Challenge: Quick check: Ex vivo lipid peroxidation inhibition inhibition ratio (%) Heart of Cc1c(C)c2c(c(C)c1O)CCC(C)(C(=O)Nc1ccc(-n3ccnc3)cc1)O2 (stereo not drawn) [Compound R-2, reference compound] ?
Response given: 57%

Challenge: Quick check: Ex vivo lipid peroxidation inhibition inhibition ratio (%) Heart of Cc1c(C)c2c(c(C)c1N)CC(C)(CN1CCN(c3ccc(-n4ccnc4)cc3)CC1)O2 (racemic) [Compound B-1-2] ?
Response given: 93%

Challenge: Quick check: Ex vivo lipid peroxidation inhibition inhibition ratio (%) Heart of Cc1c(C)c2c(c(C)c1N)CC(C)(CNc1ccc(-c3ccn[nH]3)cc1)O2 (racemic) [Compound B-2-5-1] ?
Response given: 88%

====

Entries and their LD50 at 7 days values follow.
- Experimental Protocol: Acute oral toxicity, single oral dose, mortality rate after 7 days
- Condition Details: mouse, in vivo, male mice, observed for 7 days

Solved entries:
Challenge: Quick check: LD50 at 7 days of Cc1c(C)c2c(c(C)c1N)CC(C)(CN1CCN(c3cccc(-n4ccnc4)c3)CC1)O2 (stereo not drawn) ?
Response given: > 1000 mg/kg

Challenge: Quick check: LD50 at 7 days of Cc1c(C)c2c(c(C)c1N)CC(C)(CN1CCC(c3ccccc3)CC1)O2 (stereo not drawn) [Compound R-3, reference compound] ?
Response given: < 300 mg/kg

Others:
Challenge: Quick check: LD50 at 7 days of Cc1c(C)c2c(c(C)c1N)CC(C)(CNc1ccc(-c3ccn[nH]3)cc1)O2 (racemic) ?
Response given: > 2000 mg/kg

Data origin, for the record: patent US7553837B2
